quantity: melting point

Reference set, count: 2
>>> value_measured("Oc1ccc(Nc2ncc3ncc(-c4ccccc4O)cc3n2)cc1")
"262 to 264 °C"
>>> value_measured("CN1CC(CNN)CC2c3cccc4c3c(cn4C)CC21 (stereo not drawn)")
"102 to 103 °C"

Turning to the following molecule.
Measured melting point, O=c1[nH]c2cc(Cl)ccc2c(O)c1Sc1cccc(Br)c1 : 265 to 268 °C

---

// values below are reported melting point

Reference set, count: 3
>>> value_measured("C#CCOc1cc(Oc2ccc(Cl)cc2)ncn1")
"100 °C"
>>> value_measured("CC(NC(=O)OCc1ccccc1)C(=O)NCCc1ccccc1 (stereo not given)")
"125 to 126 °C"
>>> value_measured("CCOC(=O)c1ncn2c1[C@@H]1CCCN1C(=O)c1sccc1-2")
"212 to 213 °C"

Measured melting point, O=C(Nc1ccccc1)OCC1c2ccccc2Oc2ccccc21 : 180 to 181 °C

Measured melting point, CC1CC(C)CN(S(=O)(=O)c2cc(Cl)cc(C(=O)O)c2)C1 (stereo not given) : 226 to 231 °C

Measured melting point, O=C(NCCO)C1(c2cccc3nn(Cc4cccc(C(F)(F)F)c4)cc23)C=CC=CN1 (stereo not given) : 50 to 51 °C

Measured melting point, NC(=O)c1nc(-c2cccc(O)c2)nc2c1[nH]c(=O)n2-c1ccccc1Oc1ccccc1 : 329 to 331 °C

Measured melting point, Cc1oc(-c2ccccc2)nc1COc1cccc(C=CC=Cc2nnn[nH]2)c1 : 201 to 202 °C

Measured melting point, CCOC(=O)c1cnn(-c2ccccn2)c1N : 92 to 93 °C

Measured melting point, COc1ccc(-c2cncc(C#N)c2Nc2ccc3[nH]ccc3c2)cc1Br : 148 to 150 °C
